Recorded values, source patent US20220324960A1.

Property: koff; scope: individual binders
Target: T1, Canine IL31 (canine)
T1 chain: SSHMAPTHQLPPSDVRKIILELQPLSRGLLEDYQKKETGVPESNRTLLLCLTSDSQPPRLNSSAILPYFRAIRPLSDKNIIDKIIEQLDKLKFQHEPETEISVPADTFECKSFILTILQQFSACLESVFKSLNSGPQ
Test: SPR, BIAcore 8K, Protein A sensor chip
Number first, unit second: that is the form wanted.

cmVH3 + cmVL2 chimeric antibody (antibody, human IgG1, V domains shown, also called analyte 5) VH: EVQLVESGPSLVKPGGSLRLTCSVTGDSITSGYWKWIRKFPGNKLEYMGYISYSGITDYNPSLKSRITISRDTSKNQYYLQLNSVTTEDTATYYCARYANYGYAMDYWGQGTSVTVSS VL: DIVMTQSPASLSVSLGQRATISCRASESVDTYGRSFMHWYQQKPGQSPKLLIYRASNLESGIPARFGGSGSGTDFTLTIDPVQADDVATYYCYQSYEDPWTFGGGTKLEIK | 0.000168 s⁻¹

Exercise: I would be grateful if you could share the reported koff for cmVH3 + cmVL3 chimeric antibody (antibody, human IgG1, V domains shown, also called analyte 6) VH: EVQLVESGPSLVKPGGSLRLTCSVTGDSITSGYWKWIRKFPGNKLEYMGYISYSGITDYNPSLKSRITISRDTSKNQYYLQLNSVTTEDTATYYCARYANYGYAMDYWGQGTSVTVSS VL: DIVMTQSPASLSVSLGQRATISCRASESVDTYGRSFMHWYQQKPGQSPKLLIYRASNLESGIPARFGGSGSGTDFTLTIDPVQADDVATYYCHQSYEDPWTFGGGTKLEIK .
Key: 0.000185 s⁻¹

Exercise: Please give the result for Caninized VH-VL M14 chimeric antibody (caninized VH of M14 fused to human IgG1 heavy chain and caninized VL of M14 fused to human kappa constant light chain) (antibody, V domains shown, Chimeric: VH fused to human IgG1 heavy chain, VL fused to human kappa constant light chain; also called analyte 1; caninized VH-VL M14 antibody control) VH: EVQLVESGPSLVKPGGSLRLTCSVTGDSITSGYWNWIRKFPGNKLEYMGYISYSGITDYNPSLKSRITISRDTSKNQYYLQLNSVTTEDTATYYCARYGNYGYAMDYWGQGTSVTVSS VL: DIVMTQSPASLSVSLGQRATISCRASESVDTYGNSFMHWYQQKPGQSPKLLIYRASNLESGIPARFGGSGSGTDFTLTIDPVQADDVATYYCQQSYEDPWTFGGGTKLEIK too.
Key: 0.000523 s⁻¹
